- test_target: recombinant human TGF-β1 (R&D systems) (human, UniProt P01137 279-390)
- Sequence (P01137 279-390 limits assumed): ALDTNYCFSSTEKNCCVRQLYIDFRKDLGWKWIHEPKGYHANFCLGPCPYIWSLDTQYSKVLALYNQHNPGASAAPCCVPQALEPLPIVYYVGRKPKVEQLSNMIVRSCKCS
- measurement_description: cell-based or functional assay
Starred links: 1 amine or outer side, 2 acyl side, 3 side chain; linkers in the order of their positions; H or OH if unused. Positions of bridges follow the written chain, without caps; N, C: chain ends. Non-standard residues stand in square brackets, D forms with d. No end group written: not given here. KCOpipzaa = N6-(4-(carboxymethyl)piperazine-1-carbonyl)-L-lysine, O=C(NCCCC[C@H](N[*:1])C(=O)[*:2])N1CCN(CC(=O)[*:3])CC1; Trp(6-aza) = N[C@@H](Cc1c[nH]c2cnccc12)C(=O)O; Trp(7-aza) = N[C@@H](Cc1c[nH]c2ncccc12)C(=O)O; 1Nal = N[C@@H](Cc1cccc2ccccc12)C(=O)O; Gly(NCH2CH2Ph) = O=C(O)CNCCc1ccccc1; 4Pal = N[C@@H](Cc1ccncc1)C(=O)O
quantity: SBE reporter % inhibition, peptide 7.5 nM (%)
Could you give me the number in %? Just the number is fine.

Consider the following illustrative entries.
binder | observed_measurement
{CH2CO}-F[Trp(7-aza)]VVNVYDD[Gly(NCH2CH2Ph)]V[1Nal]YHVCG (thioether N-16; not fully specified (C-terminus), cyclic peptide; C-terminal G is a linker) [TGFb1_005] | 90.8
{CH2CO}-F[1Nal]V[KCOpipzaa]NV[4Pal]DD[Gly(NCH2CH2Ph)]V[1Nal]YHVCG (thioether N-16; not fully specified (C-terminus), cyclic peptide; C-terminal G is a linker) [TGFb1_010] | 97.9
{CH2CO}-F[1Nal]VVNV[4Pal]DD[Gly(NCH2CH2Ph)]V[1Nal][4Pal]HVCG (thioether N-16; not fully specified (C-terminus), cyclic peptide; C-terminal G is a linker) [TGFb1_009] | 94.8
{CH2CO}-FWVVNVYDD[Gly(NCH2CH2Ph)]V[1Nal]YHVCG (thioether N-16, cyclic peptide; C-terminal G is a linker) [TGFb1_003] | 97.3
{CH2CO}-F[1Nal]VVNVYDD[Gly(NCH2CH2Ph)]V[1Nal]YHVCG (thioether N-16, cyclic peptide; C-terminal G is a linker) [TGFb1_001] | 98.1
{CH2CO}-F[1Nal]VKNV[4Pal]DD[Gly(NCH2CH2Ph)]V[1Nal]YHVCG (thioether N-16; not fully specified (C-terminus), cyclic peptide; C-terminal G is a linker) [TGFb1_007] | 83.5
{CH2CO}-F[Trp(6-aza)]VVNVYDD[Gly(NCH2CH2Ph)]V[1Nal]YHVCG (thioether N-16, cyclic peptide; C-terminal G is a linker) [TGFb1_004] | 70.1
{CH2CO}-F[1Nal]VVNV[4Pal]DD[Gly(NCH2CH2Ph)]V[1Nal]YHVCG (thioether N-16; not fully specified (C-terminus), cyclic peptide; C-terminal G is a linker) [TGFb1_006] | 97.1

The record that follows has no SBE reporter % inhibition, peptide 7.5 nM shown yet.
Fill in reported SBE reporter % inhibition, peptide 7.5 nM for this entry: {CH2CO}-F[Trp(7-aza)]VVNV[4Pal]DD[Gly(NCH2CH2Ph)]V[1Nal]YHVCG (thioether N-16; not fully specified (C-terminus), cyclic peptide; C-terminal G is a linker) [TGFb1_008] 94.6
